- Experiment: in vivo
- Experimental Setup: mouse, po, 5 mg/kg
Measure: Cmax (nM)
Give the value, in units of nM, as a plain number.

The recorded Cmax for entry `CN1C(=O)N(c2cc(Cl)cc(Cl)c2)C(=O)[C@]12CN(c1ccc(C(=O)O)cn1)C[C@H]2c1ccc(C#N)cc1` equals 320

###

- Organism: Canis familiaris
- Experimental Setup: dog, in vivo, po, 5 mg/kg
Measure: Tmax (h)
Give the value, in units of h, as a plain number.

The recorded Tmax for entry `CN1C(=O)N(c2cc(Cl)cc(Cl)c2)C(=O)[C@]12CN(c1ccc(C(=O)O)cn1)C[C@H]2c1ccc(C#N)cc1` equals 2.9
